MEASURED_TARGET: LXRβ (Homo sapiens, UniProt P55055)
Construct: CMX-GAL4N-hLXRβ-LBD; expressed in transfected cells; host or cells: HEK293
Sequence (P55055 222-460 limits assumed): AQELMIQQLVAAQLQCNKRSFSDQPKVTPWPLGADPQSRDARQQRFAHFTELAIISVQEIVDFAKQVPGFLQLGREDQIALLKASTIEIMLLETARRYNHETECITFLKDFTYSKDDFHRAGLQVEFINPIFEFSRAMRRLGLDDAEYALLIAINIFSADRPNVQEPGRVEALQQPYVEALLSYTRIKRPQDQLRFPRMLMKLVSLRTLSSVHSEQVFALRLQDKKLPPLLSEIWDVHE
ASSAY_PROTOCOL: LXRβ reporter gene assay in HEK293
Assay type: cell-based
ASSAY_CONDITIONS: read-out: LXRβ antagonistic activity (IC50)
READOUT_LABEL: pIC50
Schema: pIC50 number; meaning minus log10 of the concentration expressed in molar units.

(Q) Look at this compound and give its reported pIC50. CCCCn1c(=O)c2ccccc2c2cc(C)ccc21 [Compound 8]
(A) 4.80

(Q) Also need CCn1c(=O)c2ccccc2c2cc(C(O)(C(F)(F)F)C(F)(F)F)ccc21 [Compound 14] , thanks.
(A) 5.18

(Q) How about CCCc1cc(C(O)(C(F)(F)F)C(F)(F)F)cc2c1[nH]c(=O)c1ccccc12 [Compound 42] ?
(A) 4.70

(Q) Also CCCCn1c(=O)c2ccccc2c2cc(C(O)(C(F)(F)F)C(F)(F)F)ccc21 [Compound 12] ?
(A) 5.43

(Q) For CCCCn1c(=O)c2ccc(C(F)(F)F)cc2c2cc(C(O)(C(F)(F)F)C(F)(F)F)ccc21 [Compound 37] then?
(A) 5.36

(Q) Can you check CCCCn1c(=O)c2cccc(OC)c2c2cc(C(O)(C(F)(F)F)C(F)(F)F)ccc21 [Compound 24] next?
(A) 5.37

(Q) Next entry: CCCCn1c(=O)c2ccccc2c2cc(CC)ccc21 [Compound 9]
(A) 4.80

(Q) Same lookup for CCCCn1c(=O)c2c(OC)cccc2c2cc(C(O)(C(F)(F)F)C(F)(F)F)ccc21 [Compound 21] , please.
(A) 4.92

Source of measurements: paper PMC6073568
